Test: pharmacokinetic evaluation in the rat
Assay type: in vivo, male Sprague-Dawley rats
Conditions: intravenous bolus 2 mg/kg, plasma clearance
Description: For determining the pharmacokinetic properties in rat, each HIV integrase inhibitor was dissolved in PEG400/normal saline (70:30 (v/v)) at a nominal concentration of 1 mg/ml and administered (2 ml/kg) to male Sprague-Dawley rats (n=3 per test compound) as an intravenous bolus via a saphenous vein at a dose level of 2 mg/kg. […] Plasma was obtained by centrifugation and stored at −20° C. prior to analysis. […]
measurement.name: CLp (mL/min/kg)
Field: numeric (mL/min/kg). Do not append units.

Input line: Given the molecule CC(C)N1C[C@H](C)n2c(c(O)c3c(=O)n4nc(c32)N(C)S(=O)(=O)CCCCCOc2cc(F)ccc2C4)C1=O , what is its reported CLp?
Output line: 7

Input line: # iterate: CCN1C[C@H](C)n2c(c(O)c3c(=O)n4nc(c32)N(C)S(=O)(=O)CCCCOCc2cc(F)ccc2C4)C1=O
Output line: 20

Input line: # iterate: CC(C)N1C[C@H](C)n2c(c(O)c3c(=O)n4nc(c32)N(C)S(=O)(=O)CCCCOc2cc(F)ccc2C4)C1=O
Output line: 5

Input line: # iterate: CCN1C[C@H](C)n2c(c(O)c3c(=O)n4nc(c32)N2CCN(CC2)C(=O)CCCOc2cc(F)ccc2C4)C1=O
Output line: 16

Attribution: patent US8716293B2
